- targetOrTestSystem: Aurora kinase B (Homo sapiens)
- Sequence (Q96GD4 whole entry): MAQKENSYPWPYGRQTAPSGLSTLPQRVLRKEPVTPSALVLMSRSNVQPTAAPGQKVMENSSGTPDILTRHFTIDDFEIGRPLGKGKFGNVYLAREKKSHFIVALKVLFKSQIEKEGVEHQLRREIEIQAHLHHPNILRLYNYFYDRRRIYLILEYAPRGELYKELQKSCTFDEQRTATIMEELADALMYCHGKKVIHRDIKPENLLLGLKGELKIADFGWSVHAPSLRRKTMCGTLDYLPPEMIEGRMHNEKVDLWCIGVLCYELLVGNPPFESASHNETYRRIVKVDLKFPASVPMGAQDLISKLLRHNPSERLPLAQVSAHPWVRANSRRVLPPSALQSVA
Would you mind telling me the reported IC50 of each entry?

Could you please provide reported IC50 for Cc1n[nH]c2cc(Nc3nc(NC4CC4)c4occc4n3)ccc12 ? Thanks!
> 10 µM

Look up and state reported IC50 for CC1(C)OCC(=O)Nc2cc(Nc3nc(NCC(F)(F)F)c4occc4n3)ccc21
> 10 µM

Indicate its recorded IC50; the compound in question is FC(F)(F)CNc1nc(Nc2ccc(N3CCOCC3)c(Cl)c2)nc2ccoc12
> 10 µM

---

- targetOrTestSystem: G protein-coupled receptor kinase 5 (Homo sapiens)
- Sequence (P34947 whole entry): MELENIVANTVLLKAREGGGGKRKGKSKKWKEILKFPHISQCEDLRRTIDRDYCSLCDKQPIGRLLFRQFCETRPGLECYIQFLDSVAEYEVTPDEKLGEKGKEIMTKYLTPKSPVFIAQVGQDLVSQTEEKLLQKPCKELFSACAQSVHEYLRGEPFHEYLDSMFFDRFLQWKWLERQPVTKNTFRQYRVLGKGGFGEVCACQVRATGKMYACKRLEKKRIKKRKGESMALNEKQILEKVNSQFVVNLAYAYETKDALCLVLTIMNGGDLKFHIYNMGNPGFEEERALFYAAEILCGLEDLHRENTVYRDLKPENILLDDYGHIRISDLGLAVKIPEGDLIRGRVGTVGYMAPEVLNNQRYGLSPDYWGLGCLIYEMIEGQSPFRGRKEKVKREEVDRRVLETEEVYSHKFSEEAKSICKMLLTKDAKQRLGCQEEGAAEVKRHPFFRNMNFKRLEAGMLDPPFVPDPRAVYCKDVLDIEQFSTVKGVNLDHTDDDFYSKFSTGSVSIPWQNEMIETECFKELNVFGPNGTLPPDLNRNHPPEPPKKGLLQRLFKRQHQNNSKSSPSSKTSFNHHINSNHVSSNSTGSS
pIC50: −log10 of the molar value.
valueKind: pIC50

State its pIC50 for this molecule: FC(F)(F)CNc1nc(Nc2ccc(N3CCOCC3)c(Cl)c2)nc2ccoc12
< 5.00

---

- assayName: Volume of distribution at steady state in dog at 1 mg/kg, iv
- Format: ADME, organism-based, Canis lupus familiaris
- measurementContext: in vivo, read-out: Vdss
valueKind: Vd (L/kg)
Write the answer as a number in L/kg, unit excluded.

Name the recorded Vd of the molecule listed here: COC(=O)N[C@@H]1CC(C)(C)c2ccc(Nc3nc(NCC(F)F)c4occc4n3)cc2NC1=O
2.3

---

Hi there, I'd appreciate the recorded pIC50 for every entry that follows.
- targetOrTestSystem: Mitogen-activated protein kinase 8 (Homo sapiens, UniProt P45983)
- Sequence (P45983 whole entry): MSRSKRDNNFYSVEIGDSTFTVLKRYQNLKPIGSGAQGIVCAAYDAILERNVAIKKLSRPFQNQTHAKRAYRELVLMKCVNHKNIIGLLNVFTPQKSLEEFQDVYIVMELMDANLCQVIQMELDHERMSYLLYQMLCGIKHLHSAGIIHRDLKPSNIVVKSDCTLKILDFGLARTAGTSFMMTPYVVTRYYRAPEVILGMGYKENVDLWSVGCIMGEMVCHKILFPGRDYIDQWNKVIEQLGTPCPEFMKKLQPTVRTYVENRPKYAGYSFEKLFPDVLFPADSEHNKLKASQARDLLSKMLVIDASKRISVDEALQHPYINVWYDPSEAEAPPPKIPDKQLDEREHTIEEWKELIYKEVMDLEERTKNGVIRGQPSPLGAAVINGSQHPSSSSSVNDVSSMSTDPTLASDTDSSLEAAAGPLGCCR
- assayName: Inhibition of JNK1 (unknown origin) after 60 mins by TR-FRET assay
Conceptually, pIC50 converts a concentration in mol/L into minus its log10.

Report pIC50 for CC1(C)OCC(=O)Nc2cc(Nc3nc(NCC(F)(F)F)c4occc4n3)ccc21
5.57

Provide pIC50 value for the following molecule: Cc1n[nH]c2cc(Nc3nc(NC4CC4)c4occc4n3)ccc12
5.56

Input FC(F)(F)CNc1nc(Nc2ccc3cn[nH]c3c2)nc2ccoc12 , output reported pIC50.
5.54

Return pIC50 for the following molecule: FC(F)(F)CNc1nc(Nc2ccc(N3CCOCC3)c(Cl)c2)nc2ccoc12
6.29

---

Please respond with reported pEC50 for every item in the list.
Interpret pEC50 as the negative base-10 log of the concentration measured in mol/L.

State pEC50 (Tyrosine-protein kinase SYK (Homo sapiens, UniProt P43405)) of CC1(C)OCC(=O)Nc2cc(Nc3nc(NCC(F)(F)F)c4occc4n3)ccc21 .
7.77

Param request: pEC50 | system Tyrosine-protein kinase SYK (Homo sapiens, UniProt P43405) | item FC(F)(F)CNc1nc(Nc2ccc(N3CCOCC3)c(Cl)c2)nc2ccoc12
6.93

Provide pEC50, tested on Tyrosine-protein kinase SYK (Homo sapiens, UniProt P43405), for FC(F)(F)CNc1nc(Nc2ccc3cn[nH]c3c2)nc2ccoc12 .
6.63

---

Please go through the items and note down their pIC50.
- targetOrTestSystem: Cyclin-dependent kinase 8 (Homo sapiens, UniProt P49336)
- Sequence (P49336 whole entry): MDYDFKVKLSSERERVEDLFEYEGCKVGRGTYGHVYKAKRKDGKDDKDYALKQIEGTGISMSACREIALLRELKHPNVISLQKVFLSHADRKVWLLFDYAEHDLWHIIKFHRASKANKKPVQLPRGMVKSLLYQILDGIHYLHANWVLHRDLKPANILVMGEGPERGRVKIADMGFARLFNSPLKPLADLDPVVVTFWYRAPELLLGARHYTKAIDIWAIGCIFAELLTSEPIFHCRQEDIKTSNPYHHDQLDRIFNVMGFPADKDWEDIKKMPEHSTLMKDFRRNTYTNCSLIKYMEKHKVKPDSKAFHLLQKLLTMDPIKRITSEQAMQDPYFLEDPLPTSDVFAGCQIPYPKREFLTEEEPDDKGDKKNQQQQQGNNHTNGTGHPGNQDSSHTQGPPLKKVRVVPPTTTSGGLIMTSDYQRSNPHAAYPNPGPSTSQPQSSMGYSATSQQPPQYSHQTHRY
pIC50: −log10 of the molar value.

Quick one: give measured pIC50 for FC(F)(F)CNc1nc(Nc2ccc3cn[nH]c3c2)nc2ccoc12
5.68

Could you please provide reported pIC50 for Cc1n[nH]c2cc(Nc3nc(NC4CC4)c4occc4n3)ccc12 ? Thanks!
< 5.00

Provide measured pIC50 value, entry: CC1(C)OCC(=O)Nc2cc(Nc3nc(NCC(F)(F)F)c4occc4n3)ccc21
< 5.00

---

- targetOrTestSystem: Leukocyte tyrosine kinase receptor (Homo sapiens)
- Sequence (P29376 whole entry): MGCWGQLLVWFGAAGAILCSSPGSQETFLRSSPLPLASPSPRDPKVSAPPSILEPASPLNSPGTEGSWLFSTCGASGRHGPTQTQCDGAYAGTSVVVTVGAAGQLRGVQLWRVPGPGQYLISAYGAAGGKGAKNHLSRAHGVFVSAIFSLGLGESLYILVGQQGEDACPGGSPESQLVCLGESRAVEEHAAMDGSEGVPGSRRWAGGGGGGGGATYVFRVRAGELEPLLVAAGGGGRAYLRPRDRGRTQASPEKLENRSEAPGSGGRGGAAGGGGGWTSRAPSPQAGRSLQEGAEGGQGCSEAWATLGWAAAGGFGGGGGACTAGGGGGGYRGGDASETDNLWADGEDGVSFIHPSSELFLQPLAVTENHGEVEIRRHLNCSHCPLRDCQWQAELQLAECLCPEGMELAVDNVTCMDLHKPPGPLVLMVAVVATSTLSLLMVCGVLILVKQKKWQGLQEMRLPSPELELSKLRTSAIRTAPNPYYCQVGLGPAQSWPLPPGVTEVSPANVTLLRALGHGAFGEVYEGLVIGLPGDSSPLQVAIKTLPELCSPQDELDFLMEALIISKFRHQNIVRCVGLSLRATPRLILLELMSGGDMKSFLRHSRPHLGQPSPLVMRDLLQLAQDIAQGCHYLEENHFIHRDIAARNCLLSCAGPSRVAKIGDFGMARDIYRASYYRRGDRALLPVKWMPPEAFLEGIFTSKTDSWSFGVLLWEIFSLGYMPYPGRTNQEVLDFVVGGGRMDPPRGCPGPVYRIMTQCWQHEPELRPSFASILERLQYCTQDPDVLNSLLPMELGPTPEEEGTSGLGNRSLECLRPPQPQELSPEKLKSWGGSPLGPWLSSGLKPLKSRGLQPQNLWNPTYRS
Provide the reported pIC50 of each item.
Remember, pIC50 is on a log scale: it is -log10 of the molar concentration.

Quickly give me recorded pIC50 for FC(F)(F)CNc1nc(Nc2ccc3cn[nH]c3c2)nc2ccoc12
5.13

Please give measured pIC50 of the following entry: CC1(C)OCC(=O)Nc2cc(Nc3nc(NCC(F)(F)F)c4occc4n3)ccc21
5.29

---

Consider the following compounds; for each one, report its IC50.

Quote Serine/threonine-protein kinase pim-1 (Homo sapiens) IC50 for entry FC(F)(F)CNc1nc(Nc2ccc(N3CCOCC3)c(Cl)c2)nc2ccoc12 .
> 10 µM

Enter IC50 (test system Serine/threonine-protein kinase pim-1 (Homo sapiens)) for FC(F)(F)CNc1nc(Nc2ccc3cn[nH]c3c2)nc2ccoc12
1.36 µM

Provide Serine/threonine-protein kinase pim-1 (Homo sapiens) IC50 reading for CC1(C)OCC(=O)Nc2cc(Nc3nc(NCC(F)(F)F)c4occc4n3)ccc21 .
> 10 µM

---

- targetOrTestSystem: Dual specificity tyrosine-phosphorylation-regulated kinase 1B (Homo sapiens, UniProt Q9Y463)
- Sequence (Q9Y463 whole entry): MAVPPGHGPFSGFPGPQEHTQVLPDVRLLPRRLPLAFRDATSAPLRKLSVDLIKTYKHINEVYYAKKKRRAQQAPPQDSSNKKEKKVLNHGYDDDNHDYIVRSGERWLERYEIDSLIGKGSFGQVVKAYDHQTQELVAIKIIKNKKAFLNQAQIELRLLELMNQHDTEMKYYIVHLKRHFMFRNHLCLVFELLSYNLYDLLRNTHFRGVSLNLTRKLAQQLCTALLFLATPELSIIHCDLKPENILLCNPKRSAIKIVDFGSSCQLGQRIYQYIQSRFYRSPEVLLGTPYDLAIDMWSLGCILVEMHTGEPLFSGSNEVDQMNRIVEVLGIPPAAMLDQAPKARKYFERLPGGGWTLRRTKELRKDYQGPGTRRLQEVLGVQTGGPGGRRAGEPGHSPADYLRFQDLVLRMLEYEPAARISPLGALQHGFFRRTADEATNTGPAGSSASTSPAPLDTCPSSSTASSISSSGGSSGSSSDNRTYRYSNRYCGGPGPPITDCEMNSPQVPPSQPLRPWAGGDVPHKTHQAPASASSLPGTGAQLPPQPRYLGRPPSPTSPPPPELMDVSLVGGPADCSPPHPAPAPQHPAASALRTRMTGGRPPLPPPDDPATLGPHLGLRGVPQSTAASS
pIC50: −log10 of the molar value.
Kindly supply the reported pIC50 values for the records listed here.

Query pIC50 for FC(F)(F)CNc1nc(Nc2ccc(N3CCOCC3)c(Cl)c2)nc2ccoc12
< 5.00

Complete the entry with pIC50 for Cc1n[nH]c2cc(Nc3nc(NC4CC4)c4occc4n3)ccc12
< 5.00

Please look at this compound and report its pIC50: CC1(C)OCC(=O)Nc2cc(Nc3nc(NCC(F)(F)F)c4occc4n3)ccc21
< 5.00

---

- targetOrTestSystem: ALK tyrosine kinase receptor (Homo sapiens)
valueKind: IC50 (µM)
Reply numerically in µM, unit not repeated.

Determine from records and report IC50 for FC(F)(F)CNc1nc(Nc2ccc3cn[nH]c3c2)nc2ccoc12
7.63

---

- assayName: Cytotoxicity against human HepG2 cells
- Type: cell-based
valueKind: IC20

In one line, give reported IC20 of the entry COC(=O)N[C@@H]1CC(C)(C)c2ccc(Nc3nc(NCC(F)F)c4occc4n3)cc2NC1=O .
> 10 µM

---

- targetOrTestSystem: RAC-alpha serine/threonine-protein kinase (Homo sapiens)
pIC50: −log10 of the molar value.
valueKind: pIC50

# return recorded pIC50 for entry CC1(C)OCC(=O)Nc2cc(Nc3nc(NCC(F)(F)F)c4occc4n3)ccc21
< 5.00

---

- targetOrTestSystem: CYP3A4 (Homo sapiens, UniProt P08684)
- Sequence (P08684 whole entry): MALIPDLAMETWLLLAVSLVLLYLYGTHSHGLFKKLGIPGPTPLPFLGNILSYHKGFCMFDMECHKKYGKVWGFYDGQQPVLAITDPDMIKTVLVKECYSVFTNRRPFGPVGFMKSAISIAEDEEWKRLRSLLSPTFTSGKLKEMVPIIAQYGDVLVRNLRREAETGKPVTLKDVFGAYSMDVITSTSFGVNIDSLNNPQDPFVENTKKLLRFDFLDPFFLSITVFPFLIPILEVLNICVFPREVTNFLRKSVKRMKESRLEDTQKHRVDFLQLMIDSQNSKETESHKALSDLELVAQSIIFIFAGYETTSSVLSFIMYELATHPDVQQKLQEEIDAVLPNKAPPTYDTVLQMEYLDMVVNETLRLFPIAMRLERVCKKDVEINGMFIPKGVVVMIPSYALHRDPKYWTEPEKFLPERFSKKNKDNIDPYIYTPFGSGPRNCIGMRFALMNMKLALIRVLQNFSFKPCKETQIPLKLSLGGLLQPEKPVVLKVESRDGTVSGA
- assayName: Inhibition of CYP3A4 in human liver microsomes assessed as residual activity at 10 uM measured after 30 mins relative to control
- Type: ADME
- measurementContext: read-out: Activity
valueKind: activity at 0.5 h, 10 µM (%)
Respond with the bare value in %.

Return activity at 0.5 h, 10 µM (reported value) for this molecule: CC1(C)OCC(=O)Nc2cc(Nc3nc(NCC(F)(F)F)c4occc4n3)ccc21
81

Output activity at 0.5 h, 10 µM of CC1(C)OCC(=O)Nc2cc(Nc3nc(NC4CC4)c4occc4n3)ccc21
56

Recall and state the measured activity at 0.5 h, 10 µM for Cc1n[nH]c2cc(Nc3nc(NC4CC4)c4occc4n3)ccc12 .
51

---

- targetOrTestSystem: Dual specificity protein kinase TTK (Homo sapiens)
- Sequence (P33981 whole entry): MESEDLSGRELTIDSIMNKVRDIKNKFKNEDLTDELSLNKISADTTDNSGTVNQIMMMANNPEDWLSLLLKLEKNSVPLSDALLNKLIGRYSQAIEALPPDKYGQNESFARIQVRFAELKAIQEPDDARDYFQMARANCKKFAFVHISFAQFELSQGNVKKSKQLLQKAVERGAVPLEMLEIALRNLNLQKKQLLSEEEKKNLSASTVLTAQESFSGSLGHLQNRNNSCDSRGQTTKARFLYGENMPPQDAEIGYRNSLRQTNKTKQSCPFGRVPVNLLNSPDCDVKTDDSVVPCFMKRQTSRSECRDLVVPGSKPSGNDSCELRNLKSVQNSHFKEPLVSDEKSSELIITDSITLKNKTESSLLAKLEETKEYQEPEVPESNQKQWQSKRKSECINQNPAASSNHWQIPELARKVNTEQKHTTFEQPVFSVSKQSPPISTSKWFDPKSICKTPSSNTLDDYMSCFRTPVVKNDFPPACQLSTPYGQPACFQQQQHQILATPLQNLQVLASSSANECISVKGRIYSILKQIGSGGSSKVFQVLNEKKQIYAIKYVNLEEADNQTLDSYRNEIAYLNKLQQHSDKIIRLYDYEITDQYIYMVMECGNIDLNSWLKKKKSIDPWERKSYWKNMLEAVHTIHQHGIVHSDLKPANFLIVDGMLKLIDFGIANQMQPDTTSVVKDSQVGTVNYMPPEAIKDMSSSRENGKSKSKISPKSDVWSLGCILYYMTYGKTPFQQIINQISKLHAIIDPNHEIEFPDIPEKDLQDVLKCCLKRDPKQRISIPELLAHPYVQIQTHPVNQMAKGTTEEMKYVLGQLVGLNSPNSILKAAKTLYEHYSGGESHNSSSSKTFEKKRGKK
valueKind: IC50
I'd appreciate it if you wrote the number followed by its unit.

For the compound Cc1n[nH]c2cc(Nc3nc(NC4CC4)c4occc4n3)ccc12 , give its measured IC50 value.
2160 nM

---

- targetOrTestSystem: UniProt:Q16288
- Sequence (Q16288 whole entry): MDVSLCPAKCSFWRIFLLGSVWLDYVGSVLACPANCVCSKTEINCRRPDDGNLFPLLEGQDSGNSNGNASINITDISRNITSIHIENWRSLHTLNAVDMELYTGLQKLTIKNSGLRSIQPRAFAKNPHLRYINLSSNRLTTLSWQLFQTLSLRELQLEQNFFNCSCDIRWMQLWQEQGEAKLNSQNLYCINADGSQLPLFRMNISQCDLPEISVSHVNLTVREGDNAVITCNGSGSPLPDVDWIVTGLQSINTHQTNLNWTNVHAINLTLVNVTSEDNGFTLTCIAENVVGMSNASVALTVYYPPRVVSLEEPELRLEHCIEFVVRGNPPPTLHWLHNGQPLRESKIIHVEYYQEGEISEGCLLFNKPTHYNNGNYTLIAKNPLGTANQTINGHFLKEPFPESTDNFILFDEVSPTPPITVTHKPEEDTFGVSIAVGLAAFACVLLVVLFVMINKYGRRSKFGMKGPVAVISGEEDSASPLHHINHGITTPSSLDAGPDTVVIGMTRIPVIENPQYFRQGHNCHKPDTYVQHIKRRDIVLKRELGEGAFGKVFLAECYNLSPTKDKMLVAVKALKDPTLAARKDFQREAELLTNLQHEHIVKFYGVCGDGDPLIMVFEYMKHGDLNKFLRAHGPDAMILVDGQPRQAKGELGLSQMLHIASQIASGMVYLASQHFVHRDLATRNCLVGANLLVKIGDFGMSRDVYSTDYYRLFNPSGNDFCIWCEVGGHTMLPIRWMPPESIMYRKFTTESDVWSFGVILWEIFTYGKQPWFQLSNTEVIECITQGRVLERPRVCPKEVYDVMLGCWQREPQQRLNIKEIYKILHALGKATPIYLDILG
For each record, write down the corresponding IC50.

Supply reported IC50 belonging to this compound: FC(F)(F)CNc1nc(Nc2ccc3cn[nH]c3c2)nc2ccoc12
> 10 µM

Answer with the recorded IC50 of CC1(C)OCC(=O)Nc2cc(Nc3nc(NCC(F)(F)F)c4occc4n3)ccc21 only.
7.7 µM

Let me know recorded IC50 for FC(F)(F)CNc1nc(Nc2ccc(N3CCOCC3)c(Cl)c2)nc2ccoc12 , thanks.
> 10 µM

Find the measured IC50 of Cc1n[nH]c2cc(Nc3nc(NC4CC4)c4occc4n3)ccc12 and report it.
> 10 µM

Sourced from ChEMBL document CHEMBL4007384
